# experimentalProtocol: Solubility of levothyroxine sodium in DMSO
# Format: physicochemical
# measurementConditions: organic solvent or mixture

[
  {
    "compound": "N[C@@H](Cc1cc(I)c(Oc2cc(I)c(O)c(I)c2)c(I)c1)C(=O)O [levothyroxine sodium]",
    "solubility": "≥ 30 mg/mL"
  }
]

Where these numbers come from: patent US12691089B2
